Each entry below carries its recorded IC50.
Molecular target: PRMT5-MEP50 enzyme (Homo sapiens)
Construct: One virus expresses full length human PRMT5 with Flag-tag at N-terminus; Flag (N); purchased Charles River (Argenta); host or cells: insect cells (Sf9), baculovirus co-infection
Sequence (O14744 whole entry): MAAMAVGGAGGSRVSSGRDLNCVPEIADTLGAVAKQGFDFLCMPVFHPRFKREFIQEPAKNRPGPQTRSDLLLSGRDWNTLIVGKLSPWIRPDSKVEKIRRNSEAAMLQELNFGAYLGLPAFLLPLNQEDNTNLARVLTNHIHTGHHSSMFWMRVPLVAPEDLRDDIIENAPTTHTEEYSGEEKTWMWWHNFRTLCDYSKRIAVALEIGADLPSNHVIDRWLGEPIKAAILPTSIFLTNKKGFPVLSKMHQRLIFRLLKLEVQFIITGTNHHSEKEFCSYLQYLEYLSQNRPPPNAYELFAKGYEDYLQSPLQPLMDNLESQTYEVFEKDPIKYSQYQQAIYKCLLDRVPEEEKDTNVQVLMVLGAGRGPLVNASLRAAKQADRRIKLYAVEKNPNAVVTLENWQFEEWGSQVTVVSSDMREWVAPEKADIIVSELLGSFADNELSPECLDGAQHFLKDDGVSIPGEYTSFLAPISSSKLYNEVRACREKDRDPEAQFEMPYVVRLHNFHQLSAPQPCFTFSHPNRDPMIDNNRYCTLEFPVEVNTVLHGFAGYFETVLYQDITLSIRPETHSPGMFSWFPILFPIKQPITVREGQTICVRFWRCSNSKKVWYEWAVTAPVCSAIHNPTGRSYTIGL
Sequence (Q9BQA1 whole entry partner): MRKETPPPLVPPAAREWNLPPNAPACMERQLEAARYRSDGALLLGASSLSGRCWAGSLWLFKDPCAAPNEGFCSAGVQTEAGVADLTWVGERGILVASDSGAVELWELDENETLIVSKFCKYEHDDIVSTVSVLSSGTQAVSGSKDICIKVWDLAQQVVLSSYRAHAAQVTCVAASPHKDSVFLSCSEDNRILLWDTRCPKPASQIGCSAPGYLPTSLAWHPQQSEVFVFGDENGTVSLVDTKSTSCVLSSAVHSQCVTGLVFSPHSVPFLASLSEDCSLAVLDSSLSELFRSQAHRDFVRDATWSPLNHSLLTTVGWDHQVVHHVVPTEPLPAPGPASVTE
Test: In vitro assay 1a: high throughput mass spectrometer assay of SAH formation, 10 nM enzyme, 60 min
Format: biochemical
Details: averaged values, PRMT5-MEP50, 10 nM enzyme, read-out: pIC50 Assay 1a (converted)
From the text: Experimental Procedures In Vitro Assay (Assay 1a and 1b) PRMT5-MEP50 enzyme was purchased from Charles River (Argenta). The enzyme complex was produced in insect cells (Sf9) infected simultaneously with two baculoviruses. One virus expresses full length human PRMT5 with Flag-tag at N-terminus, the second virus expresses full length MEP50 with His6-TEV cleavage at N-terminus. […]
Entry rule: numbers only, all in µM.

- COc1cc2c(Cl)ccnc2cc1OC[C@H]1O[C@@H](n2ccc3c(N)ncnc32)[C@H](O)[C@@H]1O: 7.94
- CNc1ccc2ccc(CC[C@H]3C[C@@H](n4ccc5cncnc54)[C@H](O)[C@@H]3O)cc2n1: 0.000398
- Nc1ncnc2c1ccn2[C@@H]1O[C@H](COc2ccc3cccnc3c2Cl)[C@@H](O)[C@H]1O: 6.31
- Nc1ncnn2c([C@@H]3O[C@H](COc4ccc5cccnc5c4)[C@@H](O)[C@H]3O)ccc12: 0.251
- Nc1ncnc2c1ccn2[C@@H]1O[C@H](COc2cc3ncccc3cc2I)[C@@H](O)[C@H]1O: 0.0398
- Nc1ncnc2c1ccn2[C@@H]1O[C@H](COc2cc3ncc(Cl)cc3cc2Cl)[C@@H](O)[C@H]1O: 0.126

stdin: Could you tell me which IC50 is on file for Nc1ncnc2c1ccn2[C@@H]1C[C@H](CCc2ccc3cc(Br)c(NCC4CC4)nc3c2)[C@@H](O)[C@H]1O ?
stdout: 0.398

stdin: Thanks! And Nc1ncnc2c1ccn2[C@@H]1O[C@H](COc2cccc3ncccc23)[C@@H](O)[C@H]1O ?
stdout: 2

stdin: Thanks! And Nc1nc(Cl)nc2c1ccn2[C@@H]1O[C@H](COc2ccc3cc(Cl)cnc3c2)[C@@H](O)[C@H]1O ?
stdout: 0.0631

stdin: Thanks! And O[C@@H]1[C@@H](CCc2ccc3ccc(NCc4ccc(Cl)cc4)nc3c2)C[C@@H](n2ccc3cncnc32)[C@@H]1O ?
stdout: 0.000794

stdin: Thanks! And Nc1ncnc2c1ccn2[C@@H]1O[C@H](COc2ccc3cc(C(F)(F)F)cnc3c2)[C@@H](O)[C@H]1O ?
stdout: 0.398

stdin: Thanks! And C=Cc1cnc2cc(OC[C@H]3O[C@@H](n4ccc5c(N)ncnc54)[C@H](O)[C@@H]3O)ccc2c1 ?
stdout: 0.02

stdin: Thanks! And O[C@@H]1[C@@H](CCc2ccc3ccc(NCc4ccccc4)nc3c2)C[C@@H](n2ccc3cncnc32)[C@@H]1O ?
stdout: 0.000501

stdin: Thanks! And O[C@@H]1[C@H](O)[C@@H](CCc2ccc3ccc(NCC4CC4)nc3c2)O[C@H]1n1ccc2cncnc21 ?
stdout: 0.00398

stdin: Thanks! And Nc1ccc2ccc(CC[C@H]3C[C@@H](n4ccc5cncnc54)[C@H](O)[C@@H]3O)cc2n1 ?
stdout: 0.000501

* * *

biological target: PRMT5-MEP50 enzyme (Homo sapiens); construct: One virus expresses full length human PRMT5 with Flag-tag at N-terminus; Flag (N); purchased Charles River (Argenta); host or cells: insect cells (Sf9), baculovirus co-infection; test: In vitro assay 1b: high throughput mass spectrometer assay of SAH formation, 1.25 nM enzyme, 120 min; format: biochemical; conditions: averaged values; PRMT5-MEP50, 1.25 nM enzyme, 120 min; read-out: pIC50 Assay 1b (converted)
Each entry below carries its recorded log10 IC50.
log10 IC50, nM

Examples with answers:
• Nc1nc2cc(OC[C@H]3O[C@@H](n4ccc5c(O)ncnc54)[C@H](O)[C@@H]3O)ccc2cc1Br = 2.90
• Nc1ncc2ccn([C@@H]3C[C@H](CCc4ccc5cc(Cl)c(N)nc5c4)[C@@H](O)[C@H]3O)c2n1 = -0.10
• Nc1ncnc2c1ccn2[C@@H]1O[C@H](COc2cc3ncccc3cc2Cl)[C@@H](O)[C@H]1O = 2.70
• Nc1ncnc2c1ccn2[C@@H]1O[C@H](COc2ccc3cnccc3c2)[C@@H](O)[C@H]1O = 3.60
• Nc1cnc2ccc(CC[C@H]3C[C@@H](n4ccc5c(Cl)ncnc54)[C@H](O)[C@@H]3O)cc2n1 = 1.70

stdin: Could you tell me which log10 IC50 is on file for CN(C)c1ccc2ccc(OC[C@H]3O[C@@H](n4ccc5c(N)ncnc54)[C@H](O)[C@@H]3O)cc2n1 ?
stdout: 2.50

stdin: Thanks! And Nc1ncc2ccc(CC[C@H]3C[C@@H](n4ccc5c(N)ncnc54)[C@H](O)[C@@H]3O)cc2n1 ?
stdout: 0.90
